Values compiled from patent US20110229463A1.

biological target: T1, recombinant human EGFR extracellular domain with 6xHis (human, UniProt P00533 25-645); test: SPR (BIAcore 2000): IgG captured by anti-human Fc, soluble EGFR ECD injected
T1 construct: In-house protein; also called 6xHis EGFR ECD; soluble human EGFR ECD; not shown: 6xHis tag
RESULT TYPE: t1/2 (min)
Kindly answer with a numeric value in min, unit omitted.

(Q) Returns the measured t1/2 for the input binder. Input: antibody 1024 (antibody, human IgG1, kappa, V domains shown, Chimeric mouse/human IgG1 kappa) VH: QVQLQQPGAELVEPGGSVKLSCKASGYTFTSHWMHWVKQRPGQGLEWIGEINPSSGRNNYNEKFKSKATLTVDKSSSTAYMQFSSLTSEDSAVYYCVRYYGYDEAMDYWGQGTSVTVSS VL: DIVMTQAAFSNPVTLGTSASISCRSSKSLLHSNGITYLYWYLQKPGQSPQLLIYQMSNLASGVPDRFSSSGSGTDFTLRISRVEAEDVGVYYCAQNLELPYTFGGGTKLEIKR
(A) 2.4

Read the next record carefully.
(Q) Returns the measured t1/2 for the input binder. Input: antibody 992 (antibody, human IgG1, kappa, V domains shown, Chimeric mouse variable / human IgG1 kappa; the light chain entry includes the human kappa constant region; the end of the range is counted on the printed entry) VH: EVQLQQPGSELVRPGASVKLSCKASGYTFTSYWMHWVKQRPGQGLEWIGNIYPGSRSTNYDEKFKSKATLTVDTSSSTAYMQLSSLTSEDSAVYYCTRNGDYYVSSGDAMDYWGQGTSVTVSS VL: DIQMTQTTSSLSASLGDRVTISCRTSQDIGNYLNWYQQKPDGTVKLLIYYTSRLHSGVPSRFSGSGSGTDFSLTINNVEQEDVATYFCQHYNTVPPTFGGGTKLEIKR
(A) 0.2
